# SUBJECT OF TEST: Cyclin-dependent kinase 1/cyclin B (Homo sapiens, UniProt P06493)
# TEST METHOD NOTES: Inhibitory concentration against CDK1/cyclin B was determined
ASSAY READOUT: IC50

MOLECULE | RESULT
CCCC(C)Oc1c(C(=O)c2ccccc2)cnc2[nH]ncc12 (configuration not stated) | 310 nM
CCCOc1c(C(=O)c2ccccc2)cnc2[nH]ncc12 | 220 nM
CCCCCOc1c(C(=O)c2ccccc2)cnc2[nH]ncc12 | 310 nM
CC(C)CCOc1c(C(=O)c2ccccc2)c[nH]c2nncc1-2 | 240 nM

Bench note: what IC50 did O=C(c1ccccc1)c1cnc2[nH]ncc2c1OCc1ccccc1 show?
350 nM

Any idea what IC50 was measured for O=C(c1ccccc1)c1cnc2[nH]ncc2c1OC1CCCCC1 ?
600 nM

What value of measured IC50 is listed for CCCCOc1c(C(=O)c2ccccc2)cnc2[nH]ncc12 ?
150 nM

###

# SUBJECT OF TEST: Cyclin-dependent kinase 2/cyclin E (Homo sapiens, UniProt P24941)
# TEST METHOD NOTES: In vitro inhibition of human CDK2/cyclin E.
Measured log10 of IC50, listed per entry.
# log10 transformed; quantity=IC50; unit=µM

MOLECULE | READOUT NUMBER
CC(C)CCOc1c(C(=O)c2ccccc2)c[nH]c2nncc1-2 | -0.74
CCCCSc1c(C(=O)c2ccccc2)cnc2[nH]ncc12 | 0.64
O=C(c1ccccc1)c1cnc2[nH]ncc2c1OC1CCCCC1 | -0.18
CN(C)CCOc1c(C(=O)c2ccccc2)cnc2[nH]ncc12 | 1.23
CCCCOc1c(C(=O)c2ccccc2)cnc2[nH]ncc12 | -0.96

May I ask what log10 of IC50 has been recorded for O=C(c1ccccc1)c1cnc2[nH]ncc2c1OCCO ?
0.57

Query: log10 of IC50; subject: CCCOc1c(C(=O)c2ccccc2)cnc2[nH]ncc12
-0.74

###

# SUBJECT OF TEST: Cyclin-dependent kinase 7/ cyclin H (Homo sapiens, UniProt P50613)
# Sequence (P51946 whole entry): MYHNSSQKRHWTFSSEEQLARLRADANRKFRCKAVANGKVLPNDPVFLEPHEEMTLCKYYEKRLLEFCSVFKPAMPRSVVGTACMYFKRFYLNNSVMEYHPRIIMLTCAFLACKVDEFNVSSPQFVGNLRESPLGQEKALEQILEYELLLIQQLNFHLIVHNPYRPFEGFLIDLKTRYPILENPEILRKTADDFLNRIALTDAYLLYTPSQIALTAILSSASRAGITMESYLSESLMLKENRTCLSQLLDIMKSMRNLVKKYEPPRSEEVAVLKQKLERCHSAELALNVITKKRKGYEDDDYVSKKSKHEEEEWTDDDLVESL
# Sequence (P50613 whole entry): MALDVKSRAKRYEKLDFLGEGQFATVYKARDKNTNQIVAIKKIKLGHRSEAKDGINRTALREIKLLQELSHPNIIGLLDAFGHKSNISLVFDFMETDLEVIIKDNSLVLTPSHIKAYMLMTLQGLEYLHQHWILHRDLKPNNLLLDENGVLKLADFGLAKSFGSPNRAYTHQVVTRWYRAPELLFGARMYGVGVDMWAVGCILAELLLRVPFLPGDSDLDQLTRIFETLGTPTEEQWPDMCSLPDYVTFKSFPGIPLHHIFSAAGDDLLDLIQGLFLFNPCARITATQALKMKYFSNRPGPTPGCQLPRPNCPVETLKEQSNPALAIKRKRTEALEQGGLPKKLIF
# TEST METHOD NOTES: Inhibition of CDK7/cyclin H
ASSAY READOUT: pIC50
# pIC50 is unitless: minus log10 of the molar concentration; print number only

Return pIC50 measured with Cyclin-dependent kinase 7/ cyclin H (Homo sapiens, UniProt P50613) given this molecule: CC(C)CCOc1c(C(=O)c2ccccc2)c[nH]c2nncc1-2
5.96

###

# SUBJECT OF TEST: Cyclin-dependent kinase 2/cyclin E (Homo sapiens)
# TEST METHOD NOTES: In vitro inhibition of human CDK2/cyclin E.
ASSAY READOUT: IC50

MOL | SUBJECT OF TEST | IC50
CCCCOc1c(Cc2ccccc2)c[nH]c2nncc1-2 | Cyclin-dependent kinase 2/cyclin E (Homo sapiens) | > 25 µM
O=C(c1ccccc1)c1cnc2[nH]ncc2c1OCc1ccccc1 | Cyclin-dependent kinase 2/cyclin E (Homo sapiens) | 0.28 µM
CCCCN(C)c1c(C(=O)c2ccccc2)cnc2[nH]ncc12 | Cyclin-dependent kinase 2/cyclin E (Homo sapiens) | > 25 µM

# input for lookup
Look at this molecule and give its reported IC50. CCn1ncc2c(OCCC(C)C)c(C(=O)c3ccccc3)cnc21
> 25 µM

###

# SUBJECT OF TEST: Tyrosine-protein kinase Lck (Homo sapiens, UniProt P06239)
# Sequence (P06239 whole entry): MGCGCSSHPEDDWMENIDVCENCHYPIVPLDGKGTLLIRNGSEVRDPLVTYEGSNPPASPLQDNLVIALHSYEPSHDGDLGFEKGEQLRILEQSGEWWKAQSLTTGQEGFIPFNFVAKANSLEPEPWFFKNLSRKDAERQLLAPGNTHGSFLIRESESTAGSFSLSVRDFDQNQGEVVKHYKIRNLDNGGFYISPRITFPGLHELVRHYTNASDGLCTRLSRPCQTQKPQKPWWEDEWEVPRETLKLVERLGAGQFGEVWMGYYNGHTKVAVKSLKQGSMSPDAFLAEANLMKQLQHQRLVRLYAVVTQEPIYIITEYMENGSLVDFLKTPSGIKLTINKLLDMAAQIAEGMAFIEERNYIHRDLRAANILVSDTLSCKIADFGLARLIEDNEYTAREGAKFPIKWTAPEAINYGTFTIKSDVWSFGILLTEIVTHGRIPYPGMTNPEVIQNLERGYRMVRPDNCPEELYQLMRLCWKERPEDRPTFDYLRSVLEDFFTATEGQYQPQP
pIC50: −log10 of the molar value.
ASSAY READOUT: pIC50

Query for Tyrosine-protein kinase Lck (Homo sapiens, UniProt P06239): what pIC50 does the record show for CC(C)CCOc1c(C(=O)c2ccccc2)c[nH]c2nncc1-2 ?
< 4.30

Reference source for all entries: ChEMBL document CHEMBL1136654
